Test system: PPARg DBDmut:RXRa IVT, anti-PPARg (DBD mutation: PPARg1 K132A/R137A, NR concentration 270 nM, RXRa partner concentration 90 nM)
Assay: PBM binding z-score (relative to random genomic background probes); higher = stronger binding; sequences stand for … in GC…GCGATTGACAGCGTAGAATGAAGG
Assign PBM binding z-score to each entry below.
Just the number, please, no unit attached.

sequence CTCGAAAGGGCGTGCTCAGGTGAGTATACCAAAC , PBM binding z-score observed: -0.537

In plain terms, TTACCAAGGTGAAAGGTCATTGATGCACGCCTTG has a documented PBM binding z-score of 1.63

Per the records, this sequence ( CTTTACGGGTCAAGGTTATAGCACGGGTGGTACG ) has PBM binding z-score equal to 1.72

The sequence listed as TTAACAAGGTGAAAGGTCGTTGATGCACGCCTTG has a reported PBM binding z-score of 0.666

PBM binding z-score for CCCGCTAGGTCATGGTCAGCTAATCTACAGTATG is -0.299

For record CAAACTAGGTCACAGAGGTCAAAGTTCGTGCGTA the listed PBM binding z-score is 4.88

TCTGCTAGGTCAACGATGGTCAGCGAATCTGCTA has a reported PBM binding z-score of 0.33

Reported PBM binding z-score of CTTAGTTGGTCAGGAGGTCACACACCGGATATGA : 1.44

// PBM binding z-score value for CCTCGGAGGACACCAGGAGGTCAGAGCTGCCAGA : -1.54

Reported PBM binding z-score of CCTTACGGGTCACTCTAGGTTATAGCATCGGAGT : 0.202

Measured PBM binding z-score, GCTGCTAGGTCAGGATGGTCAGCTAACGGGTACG : -0.328

Looking up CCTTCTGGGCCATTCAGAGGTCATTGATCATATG , I found its PBM binding z-score recorded as -0.117

GET /value?item= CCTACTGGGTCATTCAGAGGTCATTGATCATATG &field=PBM binding z-score returns 1.98

// sample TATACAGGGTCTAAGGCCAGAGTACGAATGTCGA , its PBM binding z-score was 0.973

PBM binding z-score for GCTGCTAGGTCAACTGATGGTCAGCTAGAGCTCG is -0.00234

For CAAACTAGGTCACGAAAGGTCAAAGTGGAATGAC the sequence record lists PBM binding z-score as 4.86

Record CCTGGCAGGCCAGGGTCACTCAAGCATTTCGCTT . Reported PBM binding z-score: -1.01

Given item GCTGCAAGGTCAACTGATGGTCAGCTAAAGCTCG , the value recorded as its PBM binding z-score is 0.338

// PBM binding z-score value for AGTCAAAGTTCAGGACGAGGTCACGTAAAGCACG : 0.593

Just so you know, measured PBM binding z-score for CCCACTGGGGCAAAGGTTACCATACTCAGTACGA came out at 0.141

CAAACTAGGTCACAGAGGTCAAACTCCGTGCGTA has a reported PBM binding z-score of 2.84

Form: sequence = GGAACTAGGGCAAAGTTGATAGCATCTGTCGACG ; PBM binding z-score = 3.88

Given item CTCGAAAGGTGGTGCTCAGGTGAGTATACCAAAC , the value recorded as its PBM binding z-score is -0.543

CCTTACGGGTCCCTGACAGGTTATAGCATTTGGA yielded PBM binding z-score of -1.04

Entry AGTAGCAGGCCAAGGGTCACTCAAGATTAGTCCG — recorded PBM binding z-score = -0.464

Short answer for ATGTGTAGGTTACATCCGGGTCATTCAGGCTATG : PBM binding z-score was 1.02

====

System: LXRa:RXRa (NR concentration 270 nM, RXRa partner concentration 90 nM)
Assay: PBM binding z-score (relative to random genomic background probes); higher = stronger binding; sequences stand for … in GC…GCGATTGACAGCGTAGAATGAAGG
Decision: PBM binding z-score compared against 2; not below it gives criterion met, below it gives criterion not met.

Lookup: Is it the case that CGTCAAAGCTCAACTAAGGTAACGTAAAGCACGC has PBM binding z-score reaching or exceeding 2?
Found: criterion not met

Lookup: Does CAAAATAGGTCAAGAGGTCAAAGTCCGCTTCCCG have a reported PBM binding z-score of at least 2?
Found: criterion met

Lookup: Determine whether measured PBM binding z-score meets or exceeds 2 for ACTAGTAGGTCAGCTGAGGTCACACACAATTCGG
Found: criterion met

Lookup: Item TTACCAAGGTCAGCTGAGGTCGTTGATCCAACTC with PBM binding z-score of 2 or above?
Found: criterion met

Lookup: Say whether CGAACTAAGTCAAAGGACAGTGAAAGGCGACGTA shows PBM binding z-score of 2 or more.
Found: criterion not met

Lookup: Record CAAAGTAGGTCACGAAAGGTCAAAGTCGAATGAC ; criterion: PBM binding z-score no lower than 2. Met?
Found: criterion met

Lookup: Does PBM binding z-score meet or surpass 2 for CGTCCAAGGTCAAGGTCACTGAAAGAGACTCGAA ?
Found: criterion met

Lookup: For this sequence, is measured PBM binding z-score 2 or higher? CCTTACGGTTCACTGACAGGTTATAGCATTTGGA
Found: criterion met

Lookup: Kindly determine if PBM binding z-score recorded for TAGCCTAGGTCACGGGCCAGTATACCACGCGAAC is above or exactly 2.
Found: criterion met

Lookup: Does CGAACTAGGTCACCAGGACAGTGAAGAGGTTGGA have a reported PBM binding z-score of at least 2?
Found: criterion met

Lookup: Decide: PBM binding z-score of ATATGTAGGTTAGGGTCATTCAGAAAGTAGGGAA >= 2?
Found: criterion met

Lookup: Could you please find out whether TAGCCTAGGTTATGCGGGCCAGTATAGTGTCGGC has PBM binding z-score that meets 2 or exceeds it?
Found: criterion not met

Lookup: Exam item: decide whether the reported PBM binding z-score for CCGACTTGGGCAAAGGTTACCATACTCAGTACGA is at least 2.
Found: criterion not met

Lookup: State whether the measured PBM binding z-score reaches 2, counting equality as reaching it, for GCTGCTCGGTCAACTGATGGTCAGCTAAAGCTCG
Found: criterion not met

Lookup: Confirm if PBM binding z-score reported for the sequence ACTAGTTGGTAAGCTGAGGTCACACACAATTCGG is 2 or above.
Found: criterion met

Lookup: Tell me whether PBM binding z-score is at least 2 here: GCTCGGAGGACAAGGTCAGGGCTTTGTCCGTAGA
Found: criterion met

Lookup: Quick check: does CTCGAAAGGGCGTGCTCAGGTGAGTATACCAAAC have PBM binding z-score greater than or equal to 2?
Found: criterion not met

Lookup: Test whether the sequence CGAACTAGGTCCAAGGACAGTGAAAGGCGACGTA records PBM binding z-score of 2 or higher.
Found: criterion not met

Lookup: Hi, just wondering whether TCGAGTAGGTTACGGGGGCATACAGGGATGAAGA shows PBM binding z-score of 2 or higher.
Found: criterion met

Lookup: Could you please find out whether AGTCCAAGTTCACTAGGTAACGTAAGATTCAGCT has PBM binding z-score that meets 2 or exceeds it?
Found: criterion not met

Lookup: Has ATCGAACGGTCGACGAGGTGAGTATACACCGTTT a recorded PBM binding z-score greater than or equal to 2?
Found: criterion not met

Lookup: Exam item: decide whether the reported PBM binding z-score for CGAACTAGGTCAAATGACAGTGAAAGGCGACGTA is at least 2.
Found: criterion met

Lookup: Is PBM binding z-score for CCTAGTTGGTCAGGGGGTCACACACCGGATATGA at or above 2?
Found: criterion met

Lookup: Could you verify whether the entry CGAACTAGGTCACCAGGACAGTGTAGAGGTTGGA shows PBM binding z-score of no less than 2?
Found: criterion met

Lookup: Hello, I need to know if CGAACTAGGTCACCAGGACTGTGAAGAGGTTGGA has measured PBM binding z-score not below 2. Thanks!
Found: criterion met

Lookup: Hi team, for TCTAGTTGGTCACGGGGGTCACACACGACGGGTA , is the recorded PBM binding z-score at or above 2?
Found: criterion met

Lookup: Exam item: decide whether the reported PBM binding z-score for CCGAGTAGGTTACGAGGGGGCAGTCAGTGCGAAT is at least 2.
Found: criterion met

Lookup: Does PBM binding z-score meet or surpass 2 for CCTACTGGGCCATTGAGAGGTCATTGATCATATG ?
Found: criterion met

Lookup: Exam item: decide whether the reported PBM binding z-score for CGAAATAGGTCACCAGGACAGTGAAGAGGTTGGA is at least 2.
Found: criterion met

Lookup: Could you tell me if the measured PBM binding z-score of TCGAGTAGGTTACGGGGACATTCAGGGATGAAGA reaches 2 or more?
Found: criterion not met

Lookup: Record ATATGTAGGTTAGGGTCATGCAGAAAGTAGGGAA ; criterion: PBM binding z-score no lower than 2. Met?
Found: criterion met

Lookup: Check if PBM binding z-score >= 2 (inclusive). Item: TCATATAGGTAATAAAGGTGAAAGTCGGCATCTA
Found: criterion met

Lookup: Given the entry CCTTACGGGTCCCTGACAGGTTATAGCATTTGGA , answer whether its PBM binding z-score meets or surpasses 2.
Found: criterion not met

Lookup: Please tell me: is the sequence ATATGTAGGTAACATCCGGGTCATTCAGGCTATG at or over 2 in terms of PBM binding z-score?
Found: criterion met

Lookup: Is PBM binding z-score at least 2? Consider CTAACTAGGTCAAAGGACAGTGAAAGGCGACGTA
Found: criterion met

Lookup: Check this sequence for PBM binding z-score at or above 2: CTATGTAGGTTCAGGGGGTCATTCAGTTTGAAAG
Found: criterion met

Lookup: Item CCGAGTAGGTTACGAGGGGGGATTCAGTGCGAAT with PBM binding z-score of 2 or above?
Found: criterion met

Lookup: Would you say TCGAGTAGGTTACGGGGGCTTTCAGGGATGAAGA shows PBM binding z-score at minimum 2?
Found: criterion met

Lookup: hey, is PBM binding z-score for this one >= 2? TCGAGTAGGTTACGTGGGCATTCAGGGATGAAGA
Found: criterion not met

Lookup: Would you say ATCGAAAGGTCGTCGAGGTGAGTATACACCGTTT shows PBM binding z-score at minimum 2?
Found: criterion met

Lookup: Please tell me: is the sequence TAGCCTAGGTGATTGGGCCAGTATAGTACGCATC at or over 2 in terms of PBM binding z-score?
Found: criterion not met

Lookup: Is PBM binding z-score at least 2? Consider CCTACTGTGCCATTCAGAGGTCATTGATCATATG
Found: criterion met

Lookup: Could you please find out whether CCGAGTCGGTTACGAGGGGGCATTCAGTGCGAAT has PBM binding z-score that meets 2 or exceeds it?
Found: criterion met

Lookup: Has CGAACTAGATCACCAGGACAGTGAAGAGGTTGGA a recorded PBM binding z-score greater than or equal to 2?
Found: criterion not met

Lookup: Hi team, for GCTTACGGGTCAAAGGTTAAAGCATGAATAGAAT , is the recorded PBM binding z-score at or above 2?
Found: criterion met

Lookup: Dear colleague, could you confirm whether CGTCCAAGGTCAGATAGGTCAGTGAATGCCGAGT has PBM binding z-score at or above 2?
Found: criterion met

Lookup: Is PBM binding z-score for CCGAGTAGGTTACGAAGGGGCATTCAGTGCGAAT at or above 2?
Found: criterion met

Lookup: Could you please find out whether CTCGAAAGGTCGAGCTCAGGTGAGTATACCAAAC has PBM binding z-score that meets 2 or exceeds it?
Found: criterion met

Lookup: Is PBM binding z-score at least 2? Consider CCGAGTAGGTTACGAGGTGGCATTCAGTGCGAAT
Found: criterion met

Lookup: Entry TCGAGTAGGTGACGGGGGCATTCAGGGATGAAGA : is its PBM binding z-score no less than 2?
Found: criterion met
